Data provenance: patent US7973181B2

Here the recorded IC50 is given for each entry.
- Tested on: U937
- EXPERIMENT_DESCRIPTION: Cell inhibition assay (SRB cell viability), U937
- Type: cell-based
- CONDITION_DETAILS: Homo sapiens, U-937, 72 h, U937 cells

Known results for compounds:
COMPOUND: O=C(NO)c1cc2ccc(CNCc3ccc(OCCC[C@H](NC4CCCCC4)C(=O)OC4CCCC4)cc3)cc2s1 [Example 22]
IC50: 330 to 3300 nM

COMPOUND: N[C@@H](CCOc1ccc(NC(=O)CCCCCCC(=O)NO)cc1)C(=O)OC1CCCC1 [Example 7]
IC50: 330 to 3300 nM

COMPOUND: CC(=O)N[C@@H](CCCOc1ccc(CNCc2ccc3cc(C(=O)NO)sc3c2)cc1)C(=O)OC1CCCC1 [Example 21]
IC50: 330 to 3300 nM

COMPOUND: CC(=O)N[C@@H](Cc1ccc(NC(=O)CCCCCCC(=O)NO)cc1)C(=O)OC1CCCC1 [Example 1]
IC50: 330 to 3300 nM

The compound listed as N[C@@H](CCOc1cccc(NC(=O)CCCCCCC(=O)NO)c1)C(=O)O [Example 6] shows IC50 equal to 330 to 3300 nM

Record N[C@H](C(=O)OC1CCCC1)c1ccc(Oc2ccc(CNCc3ccc4cc(C(=O)NO)sc4c3)cc2)cc1 [Example 24] . Reported IC50: < 330 nM

The recorded IC50 for entry NC(C(=O)OC1CCCC1)C1CCC(Oc2ccc(CNCc3ccc4cc(C(=O)NO)sc4c3)cc2)CC1 (centres unmarked) [Example 30] equals < 330 nM

Notebook: N[C@@H](Cc1ccc(Oc2ccc(CNCc3ccc4cc(C(=O)NO)sc4c3)cc2)cc1)C(=O)OC1CCCC1 [Example 26] , IC50 read as < 330 nM

* * *

- ASSAYED_TARGET: histone deacetylase activity (HeLa nuclear extract)
- EXPERIMENT_DESCRIPTION: HDAC fluorescent activity assay (Biomol Fluor de Lys), HeLa nuclear extract
- CONDITION_DETAILS: Fluor de Lys substrate
pIC50: −log10 of the molar value.
MEASURED_ENDPOINT: pIC50

Illustrative cases are given below, each with its answer.
MOLECULE: N[C@@H](CCOc1ccc(NC(=O)CCCCCCC(=O)NO)cc1)C(=O)O [Example 8]
MEASURED_ENDPOINT: pIC50
RESULT_VALUE: 6.00 to 7.00
//
MOLECULE: NC(C(=O)O)C1CCC(Oc2ccc(CNCc3ccc4cc(C(=O)NO)sc4c3)cc2)CC1 (centres unmarked) [Example 31]
MEASURED_ENDPOINT: pIC50
RESULT_VALUE: > 7.00
//
MOLECULE: N[C@@H](CCOc1cccc(NC(=O)CCCCCCC(=O)NO)c1)C(=O)O [Example 6]
MEASURED_ENDPOINT: pIC50
RESULT_VALUE: 6.00 to 7.00
//
MOLECULE: N[C@@H](CCCOc1ccc(CNCc2ccc3cc(C(=O)NO)sc3c2)cc1)C(=O)OC1CCCC1 [Example 11]
MEASURED_ENDPOINT: pIC50
RESULT_VALUE: > 7.00
//
MOLECULE: N[C@@H](CC1CCC(Oc2ccc(CNCc3ccc4cc(C(=O)NO)sc4c3)cc2)CC1)C(=O)OC1CCCC1 (some centres unmarked) [Example 28]
MEASURED_ENDPOINT: pIC50
RESULT_VALUE: > 7.00

Value of pIC50 reported for the molecule CC(=O)N[C@H](Cc1ccc(NC(=O)CCCCCCC(=O)NO)cc1)C(=O)OC1CCCC1 [Example 3] is 6.00 to 7.00

Documented pIC50 of N[C@H](CCCOc1ccc(CNCc2ccc3cc(C(=O)NO)sc3c2)cc1)C(=O)O [Example 16] : > 7.00

Reported pIC50 ( CC(=O)N[C@H](Cc1ccc(NC(=O)CCCCCCC(=O)NO)cc1)C(=O)O [Example 4] ) = < 6.00

Recorded result, N[C@@H](CCOc1cccc(NC(=O)CCCCCCC(=O)NO)c1)C(=O)OC1CCCC1 [Example 5] , pIC50: > 7.00

Per the records, this molecule ( N[C@@H](Cc1ccc(Oc2ccc(CNCc3ccc4cc(C(=O)NO)sc4c3)cc2)cc1)C(=O)O [Example 27] ) has pIC50 equal to > 7.00

Recorded result, N[C@@H](CCOc1ccc(NC(=O)CCCCCCC(=O)NO)cc1)C(=O)OC1CCCC1 [Example 7] , pIC50: 6.00 to 7.00

Notebook: COc1cc(CNCc2ccc3cc(C(=O)NO)sc3c2)ccc1OCCC[C@H](N)C(=O)OC1CCCC1 [Example 19] , pIC50 read as > 7.00

For O=C(NO)c1cc2ccc(CNCc3ccc(OCCC[C@H](NC4CCCCC4)C(=O)O)cc3)cc2s1 [Example 23] the molecule record lists pIC50 as > 7.00

Measured pIC50 of CC(=O)N[C@@H](Cc1ccc(NC(=O)CCCCCCC(=O)NO)cc1)C(=O)OC1CCCC1 [Example 1] : 6.00 to 7.00

N[C@H](C(=O)O)c1ccc(Oc2ccc(CNCc3ccc4cc(C(=O)NO)sc4c3)cc2)cc1 [Example 25] has a reported pIC50 of > 7.00

GET /value?item= CC(=O)N[C@@H](CCCOc1ccc(CNCc2ccc3cc(C(=O)NO)sc3c2)cc1)C(=O)OC1CCCC1 [Example 21] &field=pIC50 returns > 7.00

According to the records, this molecule N[C@@H](CCOc1ccc(CNCc2ccc3cc(C(=O)NO)sc3c2)cc1)C(=O)O [Example 10] displays pIC50 of > 7.00

pIC50 measured on CC(=O)N[C@@H](Cc1ccc(NC(=O)CCCCCCC(=O)NO)cc1)C(=O)O [Example 2] = 6.00 to 7.00

* * *

- System: U937
- EXPERIMENT_DESCRIPTION: Cell inhibition assay (SRB cell viability), U937
- Assay type: cell-based
- CONDITION_DETAILS: U937 cells, 72 h
MEASURED_ENDPOINT: IC50

Entry N[C@@H](CCCOc1ccc(CNCc2ccc3cc(C(=O)NO)sc3c2)cc1)C(=O)OC1CCCC1 [Example 17] , IC50 reported as 0.33 to 3.3 µM

* * *

- System: Hela
- EXPERIMENT_DESCRIPTION: Cell inhibition assay (SRB cell viability), Hela
- Type: cell-based
- CONDITION_DETAILS: Homo sapiens, HeLa, 72 h, Hela cells
pIC50: −log10 of the molar value.
Listed here are compounds together with their documented pIC50.

Before answering, review these 3 worked examples.
COMPOUND: N[C@@H](CCOc1ccc(CNCc2ccc3cc(C(=O)NO)sc3c2)cc1)C(=O)OC1CCCC1 [Example 9]
pIC50: > 6.48
//
COMPOUND: N[C@@H](CCOc1ccc(NC(=O)CCCCCCC(=O)NO)cc1)C(=O)OC1CCCC1 [Example 7]
pIC50: 5.48 to 6.48
//
COMPOUND: N[C@@H](CCCOc1ccc(CNCc2ccc3cc(C(=O)NO)sc3c2)cc1)C(=O)OC1CCCC1 [Example 11]
pIC50: > 6.48

Kindly review the next compound as well.
pIC50 measured on CC(=O)N[C@H](Cc1ccc(NC(=O)CCCCCCC(=O)NO)cc1)C(=O)O [Example 4] = < 5.48
